Assay: Tigecycline steady-state serum pharmacokinetics, alone and with warfarin
Format: in vivo, human (healthy subjects)
Conditions: human, intravenous, 50 mg; tigecycline in serum, steady state; Mean ± SD; read-out: AUC0-12 h
measurement kind: AUC(0-t) (ng·h/mL)
One number for each entry, in ng·h/mL.

Returns the measured AUC(0-t) for the input compound. Input: CN(C)c1cc(NC(=O)CNC(C)(C)C)c(O)c2c1C[C@H]1C[C@H]3[C@H](N(C)C)C(O)=C(C(N)=O)C(=O)[C@@]3(O)C(O)=C1C2=O 2100

----------
Test: Tigecycline steady-state serum pharmacokinetics, alone and with warfarin
Format: in vivo, human (healthy subjects)
Conditions: human, intravenous, 50 mg; tigecycline in serum, steady state; Mean ± SD; read-out: C12 h
measurement kind: concentration at 12 h (ng/mL)
Give bare numbers, in ng/mL.

Would you kindly share the measured concentration at 12 h for CN(C)c1cc(NC(=O)CNC(C)(C)C)c(O)c2c1C[C@H]1C[C@H]3[C@H](N(C)C)C(O)=C(C(N)=O)C(=O)[C@@]3(O)C(O)=C1C2=O [Tigecycline] ? 109

----------
Assay: Tigecycline steady-state serum pharmacokinetics, alone and with warfarin
Type: in vivo, human (healthy subjects)
Conditions: human; tigecycline in serum, steady state, 50 mg IV every 12 h; Mean ± SD
measurement kind: Cmax (ng/mL)
Answers are plain numbers, in ng/mL.

# input compound: CN(C)c1cc(NC(=O)CNC(C)(C)C)c(O)c2c1C[C@H]1C[C@H]3[C@H](N(C)C)C(O)=C(C(N)=O)C(=O)[C@@]3(O)C(O)=C1C2=O [Tigecycline] ; wanted: its Cmax 886
